Reported Ki values for the following molecules.
- TARGET UNDER TEST: ml receptors (muscarinic receptor subtypes) (Homo sapiens)
- TEST SUMMARY: biochemical
- Format: binding
- TEST CONTEXT: read-out: ml 3H QNB Binding in CHO cells Ki; [3H]QNB 0.23 nM, 37 °C, 1 hour, CHO cells, ml
Lab book: enter the figure in µM, no units written.

MOLECULE: Cn1c(C2(O)CN3CCC2CC3)nc2ncccc21 (centres unmarked)
Ki / µM: 1.42

Please examine the following record next.
What value of Ki on ml receptors (muscarinic receptor subtypes) (Homo sapiens) does Cn1cnc2c(O[C@@H]3CN4CC[C@@H]3C4)nccc21 (relative stereo) have?
20.6

---

- TARGET UNDER TEST: ml receptors (muscarinic receptor subtypes) (Homo sapiens, UniProt P11229)
- Sequence (P11229 whole entry): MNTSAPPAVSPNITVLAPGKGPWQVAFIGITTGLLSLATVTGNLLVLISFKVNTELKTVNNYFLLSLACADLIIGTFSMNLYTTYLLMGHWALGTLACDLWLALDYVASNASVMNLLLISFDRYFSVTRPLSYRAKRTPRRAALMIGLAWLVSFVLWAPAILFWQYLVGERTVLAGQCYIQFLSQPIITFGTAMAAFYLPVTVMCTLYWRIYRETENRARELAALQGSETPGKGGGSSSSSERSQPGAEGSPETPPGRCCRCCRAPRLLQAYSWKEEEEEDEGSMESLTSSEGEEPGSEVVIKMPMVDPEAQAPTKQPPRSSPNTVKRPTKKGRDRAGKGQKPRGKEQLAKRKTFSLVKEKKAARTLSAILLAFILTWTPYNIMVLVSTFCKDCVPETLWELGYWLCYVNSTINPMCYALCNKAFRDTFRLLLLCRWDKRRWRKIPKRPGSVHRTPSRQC
- TEST SUMMARY: biochemical
- Assay type: binding
- TEST CONTEXT: ml 3H QNB Binding in CHO cells Ki (μM), [3H]QNB 0.23 nM, 37 °C, 1 hour, CHO cells, ml
ENDPOINT: Ki (µM)
Just the number please, in µM, no unit attached.

MOLECULE: c1ccc(Cn2cnc3c(OC4CN5CCC4CC5)nccc32)cc1 (single isomer, unassigned) [Example 7]
Ki (µM): 17.6

Requested read-out: Ki. Entry: Cn1cnc2c(O[C@H]3CN4CC[C@@H]3C4)nccc21 (single isomer, unassigned) [Example 3]
14.2

Would you mind telling me what Ki value was observed for Cn1cnc2c(O[C@H]3CN4CC[C@@H]3C4)ncnc21 (relative stereo) [Example 9] ?
27

// Ki lookup, key: c1ccc(Cn2cnc3c(OC4CN5CCC4CC5)nccc32)cc1 (centres unmarked) [Example 5]
3.85

Given Cn1cnc2c(OCC3CN4CCC3CC4)nccc21 (centres unmarked) [Example 8] , state its recorded Ki.
2.65
